Origin of measurements: paper PMC10901950

Measured half-life at 0.25 mM accompanies every entry in the list below.
- experimentDescription: Degradation by the brain homogenate
- Assay type: in vitro ADME
- assayContext: rat brain homogenate 100 µL (10 mg protein/mL, 50 mM Tris-HCl pH 7.4) + 100 µL peptide 0.5 mM, final 200 µL, 37 °C, 0-60 min, HPLC read-out, ln 2/k; mean ± SEM of four independent experiments in duplicate; read-out: T0.5 (degradation half-life)
Ends that are not written are not given here.
Answer shape: numeric part, then the unit.

substance	half-life at 0.25 mM
YPLDLF [R-6, rubiscolin-6]	14.3 min

Attention now turns to another entry.
-- ask Item under review: YPLDLF-NH2 [analog 6, Tyr-Pro-Leu-Asp-Leu-Phe-NH2] . Reported half-life at 0.25 mM?
-- reply 23.2 min
